- Test system: Plasmodium falciparum Sir2 (PF13_0152, Sir2A)
- Test summary: Plasmodium falciparum Sir2A binding compounds – biochemical, small-molecule microarray, 635 nm fluorescence, primary screen (AID 1098);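 note: score merges spot fluorescence intensity with its signal-to-noise ratio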
- Run conditions: fluorescence 635 nm, higher = more signal
composite z-score values by entry
Please reply with the number alone, leaving off any unit.

| Compound | Measurement name | Number |
| --- | --- | --- |
| COC(=O)[C@@]1(Cc2ccc(OC)cc2)[C@H]2c3cc(C(=O)N4CCCC4)n(CCc4ccc(O)c(O)c4)c3C[C@H]2CN1C(=O)c1ccccc1 | composite z-score | 1.49 |
| CCOC(=O)C[C@H]1[C@H](OC(=O)c2cc3ccccc3oc2=O)[C@@H](NC(=O)CC(C)C)c2cc(OCCCO)ccc2N1C(=O)c1ccccc1 | composite z-score | 0.0288 |
| CCCCCCCCCCC(O)C1C=CC2C(=O)NC(=O)C2N1Nc1ccc(Cl)cc1Cl (centres undefined) | composite z-score | -0.856 |

Query: Please report the recorded composite z-score for `COc1ccc([Si](C)(C)[C@@H]2[C@@H](CC(=O)N3Cc4ccccc4C[C@H]3CO)O[C@]3(C(=O)N(Cc4cccc(N5CCC5=O)c4)c4ccccc43)[C@H]2C)cc1` .
Response: 1.22

###

composite z-score values by entry
- Assay target: Left-right determination factor 2 (Homo sapiens) (UniProt O00292)
- Sequence (O00292 whole entry, looked up): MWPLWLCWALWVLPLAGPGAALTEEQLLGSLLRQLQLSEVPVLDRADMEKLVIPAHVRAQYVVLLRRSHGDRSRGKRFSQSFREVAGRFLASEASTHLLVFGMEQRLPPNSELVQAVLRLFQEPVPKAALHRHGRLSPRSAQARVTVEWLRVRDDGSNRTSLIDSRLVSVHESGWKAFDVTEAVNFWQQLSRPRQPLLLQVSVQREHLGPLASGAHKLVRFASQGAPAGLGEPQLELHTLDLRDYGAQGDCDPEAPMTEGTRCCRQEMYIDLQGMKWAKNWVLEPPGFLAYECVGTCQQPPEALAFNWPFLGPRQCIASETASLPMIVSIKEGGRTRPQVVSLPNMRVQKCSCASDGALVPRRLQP
- Test summary: small molecules binding LEFTY2 protein – biochemical, small-molecule microarray, 635 nm fluorescence scan, primary screen (AID 1110)
- Run conditions: higher = more signal

// known answers, use as guide
| Compound | Result |
| --- | --- |
| CC(C)[C@@H](C(=O)O)n1cc(C2(O)CCCCC2)nn1 | 0.21 |
| [N-]=[N+]=NCc1ccccc1C[C@@]1(C(=O)NCC(O)CO)N=C(c2ccc(OCCCO)cc2)O[C@@H]1c1ccccc1 (some centres not stated) | -1.38 |
| CCCCN1CC=CC23O[C@@H]4/C=C\CCCOC(=O)C4[C@H]2C(=O)N(CCCCCO)[C@@H]3C1=O (some centres not stated) | -0.68 |
| COCCOC(=O)N1C(=O)[C@@]2(c3ccccc31)[C@H](C(N)=O)[C@H]1C(=O)O[C@H](c3ccccc3)[C@H](c3ccccc3)N1[C@@H]2c1ccc(O)cc1 | 0.113 |

Query: Please report the recorded composite z-score for COc1cc2c(cc1O)C(c1cccs1)N(Cc1cccc(OC(F)(F)F)c1)CC2 (configuration not stated) .
Response: 0.0446

Query: Please report the recorded composite z-score for `O=C1O[C@@H](c2ccccc2)[C@@H](c2ccccc2)N2[C@@H](c3ccccc3OCCO)[C@]3(C(=O)Nc4ccc(C#CC5(O)CCCCCC5)cc43)[C@@H](C(=O)N3CCN(c4ncccn4)CC3)[C@H]12` .
Response: 0.409

Query: Please report the recorded composite z-score for COc1ccc(C(O)C2C=CC3C(=O)N(C)C(=O)C3N2N(c2ccccc2)c2ccccc2)c2ccccc12 (configuration not stated) .
Response: 0.0468

###

- Test summary: plasmodial surface anion channel blockers, osmotic lysis – cell-based, P. falciparum Indochina, OD700, 1 h, primary screen (AID 1154)
- Run conditions: P. falciparum Indochina infected RBC osmotic lysis, higher = more signal, called active from +8 up or from −8 down
Short version: z-score at least 5 is true, less is false.

Would you please look over these solved cases?
| Compound | Qualitative label |
| --- | --- |
| COc1cc(CO)cc(I)c1O[C@H]1C=C(C(=O)NCCO)C[C@@H](N(C(=O)c2cc3ccccc3oc2=O)C2CCCCCC2)[C@@H]1O | false |
| C=CCC(OC(C)=O)[C@@H]1[C@@H](N(Cc2cc3ccccc3o2)C(=O)Cc2ccc(OC)cc2)c2cc(OCCCO)ccc2N1C(=O)c1ccc2ccccc2c1 (some centres not stated) | false |
| O=C(NCc1ccccc1)[C@@H]1c2ccccc2C(=O)N(C2Cc3ccccc3C2)[C@H]1c1ccc(CO)cc1 | false |
| COC(=O)[C@@]1(Cc2ccc(OC)cc2)[C@H]2c3cc(C(=O)N4CCCC4)n(Cc4nc5ccccc5[nH]4)c3C[C@H]2CN1C(=O)c1ccccc1 | true |
| CCOC(=O)C1=CC[C@H]2C(=O)N(c3ccccc3)C(=O)[C@@H]12 | false |

Query: Please check the record `COc1ccc([Si](C)(C)[C@H]2[C@H](CC(=O)N3CCC[C@H]3CO)O[C@@]3(C(=O)N(Cc4cccc(N5CCOC5=O)c4)c4ccccc43)[C@@H]2C)cc1` and state if its z-score is at or above 5.
Response: false

The measured values listed here are drawn from PubChem BioAssay.
